- Tested on: Ritonavir-Resistant Mutant HIV Clones
- assay: microbe, parasite or virus in culture
- Assay type: cell-based
- measurement.conditions: Human immunodeficiency virus 1, Virus Clone Wild Type (pNL4-3); 0% Human Serum
Would you mind telling me the reported pEC50 of each entry?
Numbers only, as −log10 of the molar value.

[
  {
    "substance.smiles": "CC(C)c1nc(CN(C)C(=O)N[C@H](C(=O)N[C@@H](Cc2ccccc2)C[C@H](O)[C@H](Cc2ccccc2)NC(=O)OCc2cncs2)C(C)C)cs1",
    "pEC50": 7.15
  }
]

Now look at this entry.
Retrieve pEC50 on Ritonavir-Resistant Mutant HIV Clones; query Cc1cccc(C)c1OCC(=O)N[C@@H](Cc1ccccc1)[C@@H](O)C[C@H](Cc1ccccc1)NC(=O)[C@H](C(C)C)N1CCCNC1=O
7.66
